FYI, the data here is from patent US11179391B2.

molecular target: CDK4/CycD3 (Homo sapiens); experiment: Determination of CDK activity (Caliper mobility shift, FAM-P8 peptide): CDK4; format: biochemical; conditions: read-out: CDK4 enzymatic inhibitory activity (IC50)
Sequence (P11802 whole entry): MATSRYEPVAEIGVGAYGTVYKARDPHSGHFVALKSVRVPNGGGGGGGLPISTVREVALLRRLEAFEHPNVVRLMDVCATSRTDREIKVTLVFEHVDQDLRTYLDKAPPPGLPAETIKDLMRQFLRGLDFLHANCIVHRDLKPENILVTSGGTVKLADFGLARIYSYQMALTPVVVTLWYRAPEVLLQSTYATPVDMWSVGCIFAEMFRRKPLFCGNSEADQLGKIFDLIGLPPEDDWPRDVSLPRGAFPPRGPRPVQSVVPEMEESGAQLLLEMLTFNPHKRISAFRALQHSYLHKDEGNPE
Sequence (P30281 whole entry partner): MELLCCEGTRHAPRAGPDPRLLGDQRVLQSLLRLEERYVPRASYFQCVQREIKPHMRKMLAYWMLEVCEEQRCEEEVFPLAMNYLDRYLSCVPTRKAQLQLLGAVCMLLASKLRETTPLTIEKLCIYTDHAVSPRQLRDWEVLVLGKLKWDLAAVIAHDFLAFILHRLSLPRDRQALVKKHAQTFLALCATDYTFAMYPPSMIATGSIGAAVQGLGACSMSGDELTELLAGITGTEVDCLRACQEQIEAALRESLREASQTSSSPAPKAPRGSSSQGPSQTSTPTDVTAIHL
pIC50: −log10 of the molar value. Where a name gives a salt, the structure may show the parent alone.
reported endpoint: pIC50

>  <molecule>
Cc1nc2c(F)cc(-c3nc(Nc4ccc(C(O)C5CCNCC5)cn4)ncc3F)cc2n1C(C)C (stereo not shown) [Example 42, hydrochloride]

>  <system tested>
CDK4/CycD3 (Homo sapiens)

>  <observed measurement>
6.30 to 7.00

$$$$

====

Molecular target: CDK6/cycD3 (Homo sapiens, UniProt Q00534)
Sequence (Q00534 whole entry): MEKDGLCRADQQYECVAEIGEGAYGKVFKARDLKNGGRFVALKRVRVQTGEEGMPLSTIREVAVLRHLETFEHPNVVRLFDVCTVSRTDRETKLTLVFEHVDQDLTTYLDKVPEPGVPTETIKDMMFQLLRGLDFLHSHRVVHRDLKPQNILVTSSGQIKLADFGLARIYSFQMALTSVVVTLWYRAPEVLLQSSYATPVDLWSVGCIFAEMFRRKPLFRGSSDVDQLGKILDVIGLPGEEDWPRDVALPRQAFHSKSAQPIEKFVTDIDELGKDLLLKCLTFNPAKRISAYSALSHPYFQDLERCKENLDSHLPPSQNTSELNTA
Sequence (P30281 whole entry partner): as the sequence (P30281 whole entry partner) above
Test: Determination of CDK activity (Caliper mobility shift, FAM-P8 peptide): CDK6
Format: biochemical
Conditions: CDK6/cycD3; read-out: CDK6 enzymatic inhibitory activity (IC50)
Procedure: In vitro, CDK (CDK4, CDK6, CDK1, CDK2, CDK7, and CDK9) kinase activity was tested by the following method. […] 5. Caliper Reading: Collect Data on Caliper. […]
Listed next: entries and their corresponding IC50.
reported endpoint: IC50

>  <compound>
Cc1nc2c(F)cc(-c3nc(Nc4ccc(C=C5CCN(CC(F)F)CC5)cn4)ncc3F)cc2n1C(C)C

>  <observed measurement>
< 100 nM

$$$$
>  <compound>
Cc1nc2c(F)cc(-c3nc(Nc4ccc([C@@H](O)C5CCN(C)CC5)cn4)ncc3F)cc2n1C(C)C

>  <observed measurement>
100 to 500 nM

$$$$
>  <compound>
Cc1nc2c(F)cc(-c3nc(Nc4ccc(C=C5CCN(C(C)C)CC5)cn4)ncc3F)cc2n1C(C)C

>  <observed measurement>
100 to 500 nM

$$$$
>  <compound>
COCCN1CCC(=Cc2ccc(Nc3ncc(F)c(-c4cc(F)c5nc(C)n(C(C)C)c5c4)n3)nc2)CC1

>  <observed measurement>
< 100 nM

$$$$
>  <compound>
Cc1nc2c(F)cc(-c3nc(Nc4ccc(C=C5CCN(C)CC5)cn4)ncc3F)cc2n1C(C)C

>  <observed measurement>
100 to 500 nM

$$$$
>  <compound>
COCCN1CCC([C@@H](C)c2ccc(Nc3ncc(F)c(-c4cc(F)c5nc(C)n(C(C)C)c5c4)n3)nc2)CC1 (single isomer, unassigned)

>  <observed measurement>
< 100 nM

$$$$
>  <compound>
CCC(c1ccc(Nc2ncc(F)c(-c3cc(F)c4nc(C)n(C(C)C)c4c3)n2)nc1)N1CCN(CC)CC1 (single isomer, unassigned) [Example 2]

>  <observed measurement>
100 to 500 nM

$$$$
